biological target: T1, human CD3 on human T cells (Jurkat) (human, UniProt P07766 23-207; P04234 22-171; P09693 23-182); experiment: flow cytometry titration on Jurkat cells
T1 construct: whole, on cells; also called huCD3+; cell surface CD3 on human (Jurkat) T cells
T1 sequence (P07766 23-207, chain 1 of 3): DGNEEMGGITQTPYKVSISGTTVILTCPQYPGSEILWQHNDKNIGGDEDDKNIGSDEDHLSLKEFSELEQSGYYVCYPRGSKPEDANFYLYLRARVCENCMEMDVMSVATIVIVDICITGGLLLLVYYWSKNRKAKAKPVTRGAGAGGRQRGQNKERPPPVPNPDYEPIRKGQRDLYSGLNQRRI
T1 sequence (P04234 22-171, chain 2 of 3): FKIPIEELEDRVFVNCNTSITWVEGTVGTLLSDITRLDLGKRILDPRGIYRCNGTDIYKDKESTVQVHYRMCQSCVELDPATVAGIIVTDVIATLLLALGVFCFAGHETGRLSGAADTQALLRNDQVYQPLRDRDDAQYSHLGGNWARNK
T1 sequence (P09693 23-182, chain 3 of 3): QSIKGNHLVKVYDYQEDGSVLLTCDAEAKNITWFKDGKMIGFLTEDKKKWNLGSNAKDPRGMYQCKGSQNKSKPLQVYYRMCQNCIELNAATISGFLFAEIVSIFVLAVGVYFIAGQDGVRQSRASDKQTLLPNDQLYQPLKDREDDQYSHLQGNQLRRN
Documented IC50 across a set of binders
Please give a number only; it is taken to be in nM.

Exercise: Please report the recorded IC50 for Murine anti-CD3 (antibody, V domains shown, also called murine anti-CD3 VL/VH) VH: EVQLVESGGGLVQPKGSLKLSCAASGFTFNTYAMNWVRQAPGKGLEWVARIRSKYNNYATYYADSVKDRFTISRDDSQSILYLQMNNLKTEDTAMYYCVRHGNFGNSYVSWFAYWGQGTLVTVSS VL: QAVVTQESALTTSPGETVTLTCRSSTGAVTTSNYANWVQEKPDHLFTGLIGGTNKRAPGVPARFSGSLIGDKAALTITGAQTEDEAIYFCALWYSNLWVFGGGTKLTVL .
Solution: 7.73

Exercise: Repeat for the following binder: HuL6H2 (Fab, V domains shown, Humanized Fab expressed in Expi293F; also called VL6 + VH2 humanized Fab) VH: EVQLVESGGGLVQPGGSLKLSCAASGFTFNTYAMNWVRQASGKGLEWVARIRSKYNNYATYYADSVKDRFTISRDDSKNTLYLQMNSLKTEDTAVYYCVRHGNFGNSYVSWFAYWGQGTLVTVSS VL: QAVVTQEPSLTVSPGGTVTLTCRSSTGAVTTSNYANWFQQKPDHLPRTLIYGTNKRAPGTPARFSGSLLGDKAALTISGAQPEDEAEYYCALWYSNLWVFGGGTKLTVL
Solution: 677
